Tested on: HCT-15 colon
Assay: NCI-60 one-dose screen, 48 h (100 = growth as untreated, 0 = no growth, -100 = all killed)
Conditions: 10 µM unless noted
Compounds without any hit were thinned out: in the full panel of roughly 83,000, 20% have a hit.
Quantity: growth (%)
Respond numerically; units are % and should not be typed.

Sample answers from the record:
INSERT INTO results (compound_string, unit_of_measurement, value) VALUES
  ('COc1ccc(OC)c(/C=C/c2nnc(Nc3ccccc3)o2)c1', '%', 90.5),
  ('COc1ccc(-c2nc(NN)c3c(C)nn(-c4ccc(F)cc4)c3n2)cc1', '%', 31.2);

Turning to the following molecule.
In: Query growth for `COc1cc2cc(Oc3ccc(NC(=O)Nc4ccc(Cl)c(Cl)c4)cc3)c(C)nc2cc1OCCN1CCOCC1`
Out: 88.9

Cited source for all entries: PubChem BioAssay (NCI)
